Reported TGI values for the following compounds.
Tested on: HOP-62 NSCLC
Test: NCI tumour cell line growth inhibition, 48 h

{"columns": ["Compound", "Test Target", "TGI"],
 "data": [
  ["COC(=O)C(C(=O)C(=O)Nc1cccc([N+](=O)[O-])c1)c1nc2ccc([N+](=O)[O-])cc2[nH]c1=O (stereo not given)", "HOP-62 NSCLC", "> 100 µM"],
  ["CC1CN(c2cc3c(cc2F)c(=O)c(C(=O)O)cn3-c2ccc(F)cn2)CC(C)N1 (stereo not given)", "HOP-62 NSCLC", "> 100 µM"],
  ["CN(CC(=O)Nc1nc2ccccc2[nH]1)S(=O)(=O)c1ccc(Cl)cc1", "HOP-62 NSCLC", "> 100 µM"],
  ["CCOC(=O)C1=C(C)N(Cc2ccc(Cl)cc2Cl)C2(O)C=CC(=O)C3=C(O)c4ccccc4C(=O)C312 (stereo not given)", "HOP-62 NSCLC", "15 µM"],
  ["O=C(O)[C@H](Cc1ccccc1)NCCN1CCC[C@H]1C(=O)O", "HOP-62 NSCLC", "> 100 µM"],
  ["O=C(NNC(=S)NCc1ccccc1)c1csc(NC(=S)NC2CCCCC2)n1", "HOP-62 NSCLC", "> 100 µM"],
  ["O=C(CCn1[nH]c(=O)c(Cl)c(Cl)c1=O)NNC(=O)C[n+]1ccccc1", "HOP-62 NSCLC", "> 100 µM"],
  ["O=C1/C(=C/c2ccc(Cl)cc2)CCC/C1=C\\c1ccc(Cl)cc1", "HOP-62 NSCLC", "> 100 µM"],
  ["O=C(CCc1ccccc1)n1cccc1CO", "HOP-62 NSCLC", "> 100 µM"],
  ["CCc1ccc(C(=Nc2ccc(N(C)C(=O)CN3CCN(C)CC3)cc2)c2c(O)[nH]c3ccc(C(=O)OC)cc23)cc1", "HOP-62 NSCLC", "2.17 µM"],
  ["C/C(=C\\c1cc(C(F)(F)F)n(-c2ccc(N)cc2)n1)[C@@H]1C[C@@H]2O[C@]2(C)CCC[C@H](C)[C@H](O)[C@@H](C)C(=O)C(C)(C)[C@@H](O)CC(=O)O1", "HOP-62 NSCLC", "> 11.1 µM"],
  ["CCCCCCCCCCCCCCCCCCOCC(CCP(=O)(CP(=O)(O)O)Oc1ccccc1)OCCCCCCCCCCCCCCCCCC (stereo not given)", "HOP-62 NSCLC", "> 100 µM"],
  ["CC(=O)[CH-]C(=O)c1ccccc1.CC(=O)[CH-]C(=O)c1ccccc1.Cc1cc([O-])ccc1Cl.Cc1cc([O-])ccc1Cl.[Ti+4]", "HOP-62 NSCLC", "70.9 µM"],
  ["Cc1nc2[nH]ncn2c(=O)c1CCCl", "HOP-62 NSCLC", "> 10 µM"],
  ["NS(=O)(=O)CC1CC[CH-]CC1.[Cl-].[Cl-].[Cl-].[Cl-].[Cl-].[Sb+5].c1ccncc1", "HOP-62 NSCLC", "> 100 µM"],
  ["Fc1cccc(-n2ccc(-c3ccccc3)nc2=S)c1", "HOP-62 NSCLC", "> 100 µM"],
  ["COc1cc(/C=C\\c2nnc(/C=C\\c3ccc(O)c(OC)c3)s2)ccc1O", "HOP-62 NSCLC", "42 µM"],
  ["CCc1cc(CCC(=O)Nc2ccccc2[N+](=O)[O-])[nH]c(=S)n1", "HOP-62 NSCLC", "> 100 µM"],
  ["CC(C)Oc1cccc(N2C(=NCCc3c[nH]c4ccccc34)Nc3ccncc3S2(=O)=O)c1", "HOP-62 NSCLC", "> 100 µM"],
  ["Clc1ccc(C[P+]2(c3ccccc3)CCCCC2)cc1", "HOP-62 NSCLC", "> 100 µM"],
  ["C=C1C(=O)OC2C3C(=C)[C@@H](OC(C)=O)CC3C(C)=CC(OC(=O)C(C)(OC(C)=O)C(C)OC(C)=O)[C@@H]12 (stereo not given in full)", "HOP-62 NSCLC", "> 100 µM"],
  ["Cc1cn2c(/C=N/N=C(N)N)c(-c3ccccn3)nc2s1", "HOP-62 NSCLC", "26.9 µM"],
  ["C#CCN(N=O)C(=O)NCCCCC(NC(C)=O)C(=O)NCc1ccccc1 (stereo not given)", "HOP-62 NSCLC", "> 100 µM"],
  ["CC(C(N)C(=O)NC(C(=O)O)C1OC(n2ccc(=O)[nH]c2=O)C(O)C1O)C(O)c1ccc(O)cn1 (stereo not given)", "HOP-62 NSCLC", "> 100 µM"],
  ["C=C(C(=C)N1N=NC2C3CCC(C3)C21)N1N=NC2C3CCC(C3)C21 (stereo not given)", "HOP-62 NSCLC", "> 100 µM"],
  ["[N-]=[N+]=NCCCn1c2c(c3ccc([N+](=O)[O-])cc3c1=O)C(=O)c1cc(F)ccc1-2", "HOP-62 NSCLC", "7.04 µM"],
  ["CO/N=C(\\COc1ccc2oc(-c3ccccc3)cc(=O)c2c1)c1ccc(OC)cc1", "HOP-62 NSCLC", "33 µM"],
  ["CCOc1ccccc1-c1nc2c(s1)C(=O)c1ccccc1C2=O", "HOP-62 NSCLC", "28.7 µM"],
  ["COC1(OC)C=CC2C1C1C=CC2C1(OC)OC (stereo not given)", "HOP-62 NSCLC", "> 100 µM"],
  ["COc1cccc(Nc2nc(N)nc(N)c2N)c1", "HOP-62 NSCLC", "> 100 µM"],
  ["O=c1c(-c2ccccc2F)coc2cc(F)ccc12", "HOP-62 NSCLC", "> 100 µM"],
  ["COc1ccc2oc(C(=O)O)c3c2c1CCC3CCC(=O)O (stereo not given)", "HOP-62 NSCLC", "> 1 µM"],
  ["Cc1ccc(C(=O)/C=C/c2cccc([N+](=O)[O-])c2)cc1", "HOP-62 NSCLC", "> 100 µM"],
  ["O=c1cc(-c2ccco2)[nH]c2cc3c(cc12)OCO3", "HOP-62 NSCLC", "43.8 µM"],
  ["CCN(CC)C(=S)SCN1C(=O)c2ccccc2S1(=O)=O", "HOP-62 NSCLC", "> 100 µM"],
  ["CCN(CC)C1C(=O)NC1C#Cc1ccccc1 (stereo not given)", "HOP-62 NSCLC", "> 100 µM"],
  ["CCOC(=O)c1cc(-c2ccccc2)[nH]c1N/N=C/c1ccc(Cl)cc1", "HOP-62 NSCLC", "> 100 µM"],
  ["CN(C)c1snc2c1c(=O)n(C)c(=O)n2C", "HOP-62 NSCLC", "> 100 µM"],
  ["C[C@]12CC[C@@H]3c4ccc(O)cc4CC[C@H]3[C@@H]1CC[C@@H]2OC(=O)CCc1ccccc1", "HOP-62 NSCLC", "55.9 µM"],
  ["O=S(=O)(SC1=NCCN1)c1cccc2ccccc12", "HOP-62 NSCLC", "> 100 µM"]
]}

The measurements presented in this section are drawn from PubChem BioAssay (NCI).
